Numbers sourced from patent US20260297087A1.

So I've got a bunch of compounds here, and I need their IC50 values.
# test.system: ERK5 (Homo sapiens, UniProt Q13164)
# Construct: MEF2-luciferase reporter
# Sequence (Q13164 whole entry): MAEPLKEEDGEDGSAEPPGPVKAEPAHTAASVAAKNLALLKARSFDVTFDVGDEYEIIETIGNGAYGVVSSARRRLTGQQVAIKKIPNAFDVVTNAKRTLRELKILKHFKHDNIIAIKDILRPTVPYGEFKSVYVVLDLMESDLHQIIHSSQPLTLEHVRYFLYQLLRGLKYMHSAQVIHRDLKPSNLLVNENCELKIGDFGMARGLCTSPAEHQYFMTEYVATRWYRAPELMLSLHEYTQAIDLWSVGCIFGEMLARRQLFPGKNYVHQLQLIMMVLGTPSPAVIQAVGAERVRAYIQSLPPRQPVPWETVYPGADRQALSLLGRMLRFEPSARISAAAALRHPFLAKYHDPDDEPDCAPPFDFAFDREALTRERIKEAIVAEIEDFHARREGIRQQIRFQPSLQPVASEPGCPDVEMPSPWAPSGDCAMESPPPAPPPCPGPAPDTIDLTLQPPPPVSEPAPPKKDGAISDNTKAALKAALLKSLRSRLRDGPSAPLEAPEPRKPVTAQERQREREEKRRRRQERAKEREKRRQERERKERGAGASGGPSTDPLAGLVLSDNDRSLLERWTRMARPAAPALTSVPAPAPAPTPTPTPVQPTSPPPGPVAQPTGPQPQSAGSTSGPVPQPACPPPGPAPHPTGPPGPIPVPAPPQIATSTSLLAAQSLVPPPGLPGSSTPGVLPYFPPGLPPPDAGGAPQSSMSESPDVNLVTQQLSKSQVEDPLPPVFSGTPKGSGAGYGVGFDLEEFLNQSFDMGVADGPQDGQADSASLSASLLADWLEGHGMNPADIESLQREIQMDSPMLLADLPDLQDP
# assay.details: Inhibition of Cellular ERK5 Activity (cell-based assay, MEF2 luciferase reporter in SN12C cells)
# study.conditions: renal cancer cell line SN12C, doxycycline-induced MEKSDD, mean where repeated
Numbers only, in nM.

Use the examples below as a reference point.
>  <compound>
CO[C@H]1CC[C@H](c2cnc3[nH]c(=O)n(C4CCN(C(=O)c5ccc(OC(F)(F)F)cc5N)CC4)c3c2)CC1

>  <test.system>
ERK5 (Homo sapiens, UniProt Q13164)

>  <unit.tag>
nM

>  <IC50>
29

$$$$
>  <compound>
Nc1cc(OC(F)(F)F)ccc1C(=O)N1CCC(n2c(=O)[nH]c3ncc(C4CCOCC4)cc32)CC1

>  <test.system>
ERK5 (Homo sapiens, UniProt Q13164)

>  <unit.tag>
nM

>  <IC50>
68

$$$$
>  <compound>
O=C(c1ccc(OC(F)(F)F)cc1)N1CCC(n2c(=O)[nH]c3ncc([C@H]4CC[C@@H](O)CC4)cc32)CC1

>  <test.system>
ERK5 (Homo sapiens, UniProt Q13164)

>  <unit.tag>
nM

>  <IC50>
222

$$$$
>  <compound>
O=C(c1ccc(S(F)(F)(F)(F)F)cc1)N1CCC(n2c(=O)[nH]c3ncc(C4CCOCC4)cc32)C1 (racemic)

>  <test.system>
ERK5 (Homo sapiens, UniProt Q13164)

>  <unit.tag>
nM

>  <IC50>
361

$$$$
>  <compound>
CN1CCC(Oc2cnc3[nH]c(=O)n(C4CCN(C(=O)c5ccc(OC(F)(F)F)cc5)CC4)c3c2)C1 (racemic)

>  <test.system>
ERK5 (Homo sapiens, UniProt Q13164)

>  <unit.tag>
nM

>  <IC50>
413

$$$$
>  <compound>
O=C(c1ccc(OC(F)(F)F)cc1)N1CCC(n2c(=O)[nH]c3ncc(OC4CCOCC4)cc32)CC1

>  <test.system>
ERK5 (Homo sapiens, UniProt Q13164)

>  <unit.tag>
nM

>  <IC50>
132

$$$$
>  <compound>
Nc1cc(OC(F)(F)F)ccc1C(=O)N1CCC(n2c(=O)[nH]c3ncc(C45CC(C(F)F)(C4)C5)cc32)CC1

>  <test.system>
ERK5 (Homo sapiens, UniProt Q13164)

>  <unit.tag>
nM

>  <IC50>
124

$$$$
>  <compound>
Nc1cc(OC(F)(F)F)ccc1C(=O)N1CCC(n2c(=O)[nH]c3ncc(OC4CCOCC4)cc32)CC1

>  <test.system>
ERK5 (Homo sapiens, UniProt Q13164)

>  <unit.tag>
nM

>  <IC50>
48

$$$$

Please report IC50 for every entry that follows.
1. Nc1cc(OC(F)(F)F)ccc1C(=O)N1CCC(n2c(=O)[nH]c3ncc(C45CCCCC4C5)cc32)CC1 (racemic)
2. Nc1cc(OC(F)(F)F)ccc1C(=O)N1CCC(n2c(=O)[nH]c3ncc(OC4CCOC4)cc32)CC1 (racemic) [Example 55]
3. CN1CCC(c2cnc3[nH]c(=O)n(C4CCN(C(=O)c5ccc(OC(F)(F)F)cc5N)CC4)c3c2)CC1
4. Cc1nc2[nH]c(=O)n(C3CCN(C(=O)c4ccc(OC(F)(F)F)cc4N)CC3)c2cc1C1CCOCC1
5. COCCc1cnc2[nH]c(=O)n(C3CCN(C(=O)c4ccc(OC(F)(F)F)cc4N)CC3)c2c1
6. Nc1cc(OC(F)(F)F)ccc1C(=O)N1CCC(n2c(=O)[nH]c3ncc(CC4CCOCC4)cc32)CC1

*A*
1: 217; 2: 83; 3: 168; 4: 486; 5: 67; 6: 75
